details: in water, 283.15 K
Parameter solubility (mole fraction): see the listing below.
Reported Metric: solubility (mole fraction)

- O=S(=O)([O-])c1ccc2cc(S(=O)(=O)[O-])ccc2c1.[Na+].[Na+]: 0.00323
- O=S(=O)([O-])c1ccc2ccc(S(=O)(=O)[O-])cc2c1.[Na+].[Na+]: 0.0128

* * *

Readings of solubility (mole fraction) for the listed compounds
details: in water, 333.15 K
Reported Metric: solubility (mole fraction)

* O=S(=O)([O-])c1ccc2ccc(S(=O)(=O)[O-])cc2c1.[Na+].[Na+] | 0.075
* O=S(=O)([O-])c1ccc2cc(S(=O)(=O)[O-])ccc2c1.[Na+].[Na+] | 0.0072
